test: HepG2 liver cancer cell viability effects, profiling panel, resazurin fluorescence, 24 h, PK04 Diversity Set (AID 1172); conditions: higher = more signal; note: test concentration not given here
Answer Not met if z-score is under -0.3, and Met if it is -0.3 or more.

1. COc1cc([C@@H]2N[C@H](C(=O)O)Cc3c2[nH]c2ccccc32)cc(OC)c1OC = Met
2. CN(C)CCCC[C@@H]1NC(=O)[C@@H]2C[C@H](C(=O)O)[C@H](c3ccc(O)cc3)N2C1=O = Not met
3. C=C[C@H](OC)[C@@H](OC(=O)Nc1ccc(SC)cc1)c1ccc(OC)c(O)c1 = Met
4. CCOC(=O)C[C@H]1[C@H](OC(=O)c2ccccc2-c2ccccc2)[C@@H](NC(=O)C2CCCCC2)c2cc(OCCCO)ccc2N1C(=O)c1ccccc1 = Met
5. CO[C@@H]1COC(=O)[C@H](C)NC(=O)CC=C[C@@H](C)[C@H](OC)COC(=O)[C@H](C)NC(=O)CC=C[C@H]1C = Met
6. COc1ccc([Si](C)(C)[C@H]2[C@H](CC(=O)N3Cc4ccccc4C[C@H]3CO)O[C@@]3(C(=O)N(Cc4cccc(N5CCOC5=O)c4)c4ccccc43)[C@@H]2C)cc1 = Not met
7. CC(c1ccccc1)C(O)C1C=CC2C(=O)N(C)C(=O)C2N1N(c1ccccc1)c1ccccc1 (stereo not drawn) = Not met

Now examine the next entry.
State whether the measured z-score reaches -0.3, counting equality as reaching it, for C=CC[C@]1(C(=O)N2CCCCC2)N=C(c2ccc(OCCCO)cc2)O[C@H]1c1ccccc1N=[N+]=[N-]
Met

* * *

target: Luciferin 4-monooxygenase (Photinus pyralis) (UniProt P08659); test: firefly luciferase enzyme inhibitors, primary screen, biochemical, luminescence, purified enzyme, 2006 set (AID 1141); conditions: SteadyGlo luminescence, 30 min, called active from +8 up or from −8 down;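 note: cell-free assay with purified firefly luciferase at 100 ng per well in PBS; test concentration not given here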
Sequence (P08659 whole entry, looked up): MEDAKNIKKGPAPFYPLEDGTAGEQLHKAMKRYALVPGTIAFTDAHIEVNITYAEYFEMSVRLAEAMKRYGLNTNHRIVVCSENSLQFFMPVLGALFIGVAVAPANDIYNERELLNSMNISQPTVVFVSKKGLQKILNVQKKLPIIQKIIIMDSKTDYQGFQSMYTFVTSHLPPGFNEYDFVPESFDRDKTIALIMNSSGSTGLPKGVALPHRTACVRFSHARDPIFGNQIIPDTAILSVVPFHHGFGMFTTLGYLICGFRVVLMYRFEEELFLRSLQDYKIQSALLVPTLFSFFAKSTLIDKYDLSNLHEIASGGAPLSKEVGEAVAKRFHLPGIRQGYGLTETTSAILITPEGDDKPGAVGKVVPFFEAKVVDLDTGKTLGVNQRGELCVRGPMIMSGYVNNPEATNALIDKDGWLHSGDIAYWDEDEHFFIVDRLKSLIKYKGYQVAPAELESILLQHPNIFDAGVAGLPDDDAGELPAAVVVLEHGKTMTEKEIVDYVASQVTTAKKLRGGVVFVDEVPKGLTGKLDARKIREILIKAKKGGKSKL
Calls of active or inactive are those of the source.
Bench note: report the call from Y = active, N = inactive

Example results:
1) CCCC=C(CCC)[C@@H](NS(=O)(=O)c1cccc(C(F)(F)F)c1)c1ccc(C(=O)OC)cc1 = N
2) COC(=O)[C@@]1(Cc2ccccc2CN=[N+]=[N-])N=C(c2ccc(OCCCO)cc2)O[C@H]1c1ccccc1N=[N+]=[N-] = Y
3) C=CC[C@@]1(C(=O)NCC(O)CO)N=C(c2ccc(OCCCO)cc2)O[C@@H]1c1ccccc1CN=[N+]=[N-] (some centres not stated) = N
4) C=C(CCCC)C(=O)CC[C@@H](OC(=O)c1cccnc1)c1cccc(OCCO)c1 = N
5) CCOC(=O)C[C@H]1[C@H](OC(=O)Cc2ccc3c(c2)OCO3)[C@@H](NC(=O)c2ccc3ccccc3c2)c2cc(OCCCO)ccc2N1C(=O)Cc1ccc(OC)cc1 = N
6) CCCC[C@@H]1C[C@H]1[C@@H](NC(=O)c1cccs1)c1ccc(Cl)cc1 = N

What did the test return for CCOC(=O)C[C@H]1[C@H](OC(=O)c2cc3ccccc3oc2=O)[C@@H](NC(=O)C2CCCCC2)c2cc(OCCCO)ccc2N1C(=O)c1ccc2ccccc2n1 ?
N

* * *

biological target: Neurogenic locus notch homolog protein 3 (Homo sapiens) (UniProt Q9UM47); experiment: NOTCH3 binders on small-molecule microarray, primary screen, biochemical, 635/667 nm fluorescence (AID 1096); settings: NOTCH3 binding, 635 nm fluorescence, higher = more signal
Sequence (Q9UM47 whole entry, looked up): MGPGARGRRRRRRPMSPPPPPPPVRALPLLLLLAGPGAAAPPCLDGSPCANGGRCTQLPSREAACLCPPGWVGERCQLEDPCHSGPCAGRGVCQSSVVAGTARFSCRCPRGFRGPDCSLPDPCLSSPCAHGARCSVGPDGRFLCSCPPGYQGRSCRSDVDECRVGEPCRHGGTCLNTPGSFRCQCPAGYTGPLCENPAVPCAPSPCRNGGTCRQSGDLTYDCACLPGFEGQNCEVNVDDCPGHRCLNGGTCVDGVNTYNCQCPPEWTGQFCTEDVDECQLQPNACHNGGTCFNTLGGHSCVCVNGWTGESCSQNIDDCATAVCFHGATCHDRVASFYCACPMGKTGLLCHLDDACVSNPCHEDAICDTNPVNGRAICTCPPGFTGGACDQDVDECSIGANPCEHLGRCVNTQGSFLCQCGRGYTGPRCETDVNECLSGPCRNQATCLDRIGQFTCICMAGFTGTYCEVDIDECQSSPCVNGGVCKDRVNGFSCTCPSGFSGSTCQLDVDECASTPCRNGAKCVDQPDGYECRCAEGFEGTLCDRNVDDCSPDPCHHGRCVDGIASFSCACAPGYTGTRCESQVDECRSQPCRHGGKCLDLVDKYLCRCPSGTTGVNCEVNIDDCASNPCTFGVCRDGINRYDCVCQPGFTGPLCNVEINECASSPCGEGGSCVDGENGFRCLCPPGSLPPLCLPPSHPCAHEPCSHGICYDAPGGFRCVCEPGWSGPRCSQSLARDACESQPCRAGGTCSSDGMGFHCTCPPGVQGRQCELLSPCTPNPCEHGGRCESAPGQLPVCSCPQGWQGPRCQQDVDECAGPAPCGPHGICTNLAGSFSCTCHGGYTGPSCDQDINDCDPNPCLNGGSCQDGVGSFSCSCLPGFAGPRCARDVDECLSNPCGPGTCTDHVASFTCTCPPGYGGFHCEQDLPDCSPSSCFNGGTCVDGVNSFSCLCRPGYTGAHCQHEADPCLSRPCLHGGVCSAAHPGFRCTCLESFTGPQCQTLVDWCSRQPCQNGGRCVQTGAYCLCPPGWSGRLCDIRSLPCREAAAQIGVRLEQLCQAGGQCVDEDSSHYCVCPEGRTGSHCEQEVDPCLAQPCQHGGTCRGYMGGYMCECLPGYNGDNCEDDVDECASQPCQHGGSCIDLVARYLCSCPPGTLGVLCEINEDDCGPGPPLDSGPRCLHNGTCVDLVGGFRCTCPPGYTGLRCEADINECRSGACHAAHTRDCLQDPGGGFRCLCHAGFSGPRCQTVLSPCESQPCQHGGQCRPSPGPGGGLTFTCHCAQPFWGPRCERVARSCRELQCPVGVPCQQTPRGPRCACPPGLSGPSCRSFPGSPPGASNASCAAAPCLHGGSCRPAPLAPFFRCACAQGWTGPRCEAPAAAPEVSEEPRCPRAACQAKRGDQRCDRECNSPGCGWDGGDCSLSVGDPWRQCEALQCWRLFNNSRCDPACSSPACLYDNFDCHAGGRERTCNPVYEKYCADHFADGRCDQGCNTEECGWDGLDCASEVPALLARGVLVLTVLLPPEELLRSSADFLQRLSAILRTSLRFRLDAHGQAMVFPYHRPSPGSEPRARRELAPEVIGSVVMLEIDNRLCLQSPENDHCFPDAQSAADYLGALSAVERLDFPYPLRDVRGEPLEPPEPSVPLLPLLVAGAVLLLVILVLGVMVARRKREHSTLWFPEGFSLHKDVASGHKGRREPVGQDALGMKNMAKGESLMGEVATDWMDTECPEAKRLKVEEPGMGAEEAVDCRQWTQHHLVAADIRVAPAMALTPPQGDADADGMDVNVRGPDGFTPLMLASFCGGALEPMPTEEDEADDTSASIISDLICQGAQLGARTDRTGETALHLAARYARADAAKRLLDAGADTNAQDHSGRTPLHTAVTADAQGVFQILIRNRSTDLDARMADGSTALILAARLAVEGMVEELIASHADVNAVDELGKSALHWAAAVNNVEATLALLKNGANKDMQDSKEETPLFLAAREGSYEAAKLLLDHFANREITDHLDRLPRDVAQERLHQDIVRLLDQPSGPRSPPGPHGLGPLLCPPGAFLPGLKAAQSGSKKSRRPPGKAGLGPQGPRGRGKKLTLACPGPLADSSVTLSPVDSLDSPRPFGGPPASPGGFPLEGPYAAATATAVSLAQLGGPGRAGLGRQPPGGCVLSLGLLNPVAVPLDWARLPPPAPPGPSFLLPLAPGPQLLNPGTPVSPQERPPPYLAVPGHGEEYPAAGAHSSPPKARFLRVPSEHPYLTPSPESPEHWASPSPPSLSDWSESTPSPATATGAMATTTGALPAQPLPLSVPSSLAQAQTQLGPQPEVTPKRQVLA
test_readout: composite z-score

Example cases with answers are listed next.
1) CCOC(=O)C1=C[C@@H](c2ccccc2)N(S(=O)(=O)c2ccc(C)cc2)[C@H]1c1ccc(F)cc1 = 1.09
2) COc1ccc([Si](C)(C)[C@H]2[C@H](CC(=O)N3Cc4ccccc4C[C@H]3CO)O[C@@]3(C(=O)N(Cc4cccc(N5CCOC5=O)c4)c4ccccc43)[C@@H]2C)cc1 = 0.932

Would you mind telling me what composite z-score value was observed for CN(C)C(=O)[C@@]1(Cc2ccccc2N=[N+]=[N-])N=C(c2ccc(OCCCO)cc2)O[C@H]1c1ccccc1CN=[N+]=[N-] ?
1.06

Similarly, [N-]=[N+]=Nc1ccccc1C[C@@]1(C(=O)N2CCOCC2)N=C(c2ccc(OCCCO)cc2)O[C@@H]1c1ccccc1N=[N+]=[N-] ?
1.09
